Cited source: paper PMC12221116

- Tested on: M. aurum
- assay text: Microdilution broth resazurin assay, MIC
- Type: cell-based, Mycolicibacterium aurum
Listing of recorded Antimycobacterial Activity MIC M. aurum by entry.
experimental readout: Antimycobacterial Activity MIC M. aurum (µg/mL)

>>> test_result("Cc1nc2ccccc2c(=O)n1Cc1ccc(C(F)(F)F)cc1 [Compound 7]")
125
>>> test_result("Cc1nc2ccccc2c(=O)n1Cc1cccc(F)c1 [Compound 4]")
500
>>> test_result("Cc1nc2ccccc2c(=O)n1Cc1ccc2ccccc2c1 [Compound 8]")
62.5
>>> test_result("Cc1nc2ccccc2c(=O)n1Cc1cccc(Cl)c1 [Compound 6]")
62.5
>>> test_result("Cc1nc2ccccc2c(=O)n1Cc1cc(F)cc(C(F)(F)F)c1 [Compound 9]")
62.5

###

Listing of recorded Antimycobacterial Activity MIC M. smeg. by entry.
- Test system: M. smegmatis
- assay text: Microdilution broth resazurin assay, MIC
- Assay type: cell-based, Mycolicibacterium smegmatis
- assay conditions: Table S5 matching pairs series A and B
experimental readout: Antimycobacterial Activity MIC M. smeg.

>>> test_result("CC1Nc2ccccc2C(=O)N1Cc1ccc(Cl)c(Cl)c1 (stereo not drawn)")
"≥ 250 µg/mL"
>>> test_result("Cc1nc2ccccc2c(=O)n1Cc1ccc2ccccc2c1")
"≥ 500 µg/mL"
>>> test_result("Cc1nc2cc(Cl)ccc2c(=O)n1Cc1ccc(C(F)(F)F)cc1")
"≥ 500 µg/mL"
>>> test_result("Cc1nc2ccccc2c(=O)n1Cc1cccc(Cl)c1")
"62.5 µg/mL"
>>> test_result("Cc1nc2ccccc2c(=O)n1Cc1ccc(C(F)(F)F)cc1")
"250 µg/mL"
>>> test_result("Cc1nc2cc(Cl)ccc2c(=O)n1Cc1cccc(Cl)c1")
"≥ 250 µg/mL"
>>> test_result("COc1ccc(Cn2c(C)nc3ccccc3c2=O)c(OC)c1")
"≥ 500 µg/mL"
>>> test_result("COc1cccc(Cn2c(C)nc3ccccc3c2=O)c1")
"250 µg/mL"
>>> test_result("Cc1ccccc1Cn1c(C)nc2cc(Cl)ccc2c1=O")
"≥ 250 µg/mL"

###

- System: Mtb H37Ra
- assay text: Microdilution broth resazurin assay, MIC
- Type: cell-based, Mycobacterium tuberculosis
- assay conditions: Mycobacterium tuberculosis, H37RA; read-out: Antimycobacterial Activity MIC Mtb H37Ra
experimental readout: MIC

>>> test_result("Cc1nc2cc(Cl)ccc2c(=O)n1/N=C/c1ccc(O)cc1O [Compound 33]")
"≥ 62.5 µg/mL"
>>> test_result("Cc1nc2cc(Cl)ccc2c(=O)n1/N=C/c1cccc(Br)c1 [Compound 53]")
"≥ 31.2 µg/mL"
>>> test_result("Cc1nc2cc(Cl)ccc2c(=O)n1Cc1ccc(O)cc1 [Compound 14]")
"62.5 µg/mL"
>>> test_result("COc1ccccc1/C=N/n1c(C)nc2cc(Cl)ccc2c1=O [Compound 38]")
"≥ 62.5 µg/mL"
>>> test_result("Cc1nc2cc(Cl)ccc2c(=O)n1/N=C/c1ccccc1[N+](=O)[O-] [Compound 26]")
"≥ 62.5 µg/mL"
>>> test_result("Cc1ccc(/C=N/n2c(C)nc3cc(Cl)ccc3c2=O)cc1 [Compound 48]")
"≥ 31.2 µg/mL"
>>> test_result("Cc1nc2cc(Cl)ccc2c(=O)n1/N=C/c1ccccn1 [Compound 29]")
"≥ 31.2 µg/mL"
>>> test_result("Cc1nc2cc(Cl)ccc2c(=O)n1Cc1cccc(O)c1 [Compound 13]")
"≥ 62.5 µg/mL"
>>> test_result("Cc1nc2cc(Cl)ccc2c(=O)n1Cc1ccccc1F [Compound 18]")
"≥ 500 µg/mL"
>>> test_result("Cc1nc2cc(Cl)ccc2c(=O)n1/N=C/c1ccc(F)cc1 [Compound 44]")
"≥ 31.2 µg/mL"
>>> test_result("Cc1nc2cc(Cl)ccc2c(=O)n1Cc1ccc(F)cc1 [Compound 19]")
"7.81 µg/mL"
>>> test_result("Cc1nc2cc(Cl)ccc2c(=O)n1/N=C/c1ccccc1Cl [Compound 49]")
"≥ 31.2 µg/mL"
>>> test_result("CO[C@H]1/C=C/O[C@@]2(C)Oc3c(C)c(O)c4c(O)c(c(/C=N/N5CCN(C)CC5)c(O)c4c3C2=O)NC(=O)/C(C)=C\\C=C\\[C@H](C)[C@H](O)[C@@H](C)[C@@H](O)[C@@H](C)[C@H](OC(C)=O)[C@@H]1C [RIF, rifampicin]")
"0.00156 µg/mL"
>>> test_result("Cc1nc2cc(Cl)ccc2c(=O)n1/N=C/c1ccc(O)c([N+](=O)[O-])c1 [Compound 25]")
"31.2 µg/mL"
>>> test_result("Cc1nc2cc(Cl)ccc2c(=O)n1/N=C/c1cccc(Cl)c1 [Compound 50]")
"≥ 62.5 µg/mL"
>>> test_result("COc1ccc(/C=N/n2c(C)nc3cc(Cl)ccc3c2=O)cc1 [Compound 40]")
"≥ 15.6 µg/mL"
>>> test_result("Cc1nc2cc(Cl)ccc2c(=O)n1/N=C/c1ccc(N(C)C)cc1 [Compound 45]")
"≥ 15.6 µg/mL"
>>> test_result("Cc1nc2cc(Cl)ccc2c(=O)n1/N=C/c1cccc(O)c1 [Compound 36]")
"≥ 62.5 µg/mL"
